Experimental Target: HIS-TGFβR1 T204D (Homo sapiens, UniProt P36897, T204D)
Sequence (P36897 34-503 T204D): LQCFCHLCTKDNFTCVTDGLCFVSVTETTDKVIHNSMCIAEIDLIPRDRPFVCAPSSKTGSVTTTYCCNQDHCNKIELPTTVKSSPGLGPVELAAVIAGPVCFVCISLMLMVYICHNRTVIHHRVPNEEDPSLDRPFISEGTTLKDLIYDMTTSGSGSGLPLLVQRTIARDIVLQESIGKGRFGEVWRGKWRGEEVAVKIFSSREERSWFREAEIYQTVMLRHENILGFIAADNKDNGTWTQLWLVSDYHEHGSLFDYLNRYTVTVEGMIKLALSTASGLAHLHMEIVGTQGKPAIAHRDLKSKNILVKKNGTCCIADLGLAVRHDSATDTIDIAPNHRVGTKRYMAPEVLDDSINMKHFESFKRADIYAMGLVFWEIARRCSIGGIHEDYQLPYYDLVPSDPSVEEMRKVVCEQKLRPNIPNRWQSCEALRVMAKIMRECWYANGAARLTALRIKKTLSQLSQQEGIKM
Assay Procedure: HTRF probe-displacement assay, HIS-TGFβR1 T204D
Format: binding
Condition Parameters: read-out: TGFβR1 (μM) IC50
Cut-off 0.002 µM on IC50: below means yes (1), at or above means no (0).

compound=COc1cnc2c(-c3ccc(C(F)F)cn3)c(-c3ccnc(NC(C)=O)c3)[nH]c2c1 experimental_target="HIS-TGFβR1 T204D (Homo sapiens, UniProt P36897, T204D)" assigned_label="no (0)"
compound=CC(=O)Nc1cc(-c2[nH]c3cc(C)cnc3c2-c2ncc(C(F)F)s2)ccn1 experimental_target="HIS-TGFβR1 T204D (Homo sapiens, UniProt P36897, T204D)" assigned_label="no (0)"
compound=CC(=O)Nc1cc(-c2[nH]c3c(CN4CCN(C)CC4)ccnc3c2-c2cccc(C(F)F)n2)ccn1 experimental_target="HIS-TGFβR1 T204D (Homo sapiens, UniProt P36897, T204D)" assigned_label="yes (1)"
compound=COc1ccc(-c2c(-c3ccnc(NC(C)=O)c3)[nH]c3cc(S(C)(=O)=O)cnc23)nc1 experimental_target="HIS-TGFβR1 T204D (Homo sapiens, UniProt P36897, T204D)" assigned_label="no (0)"
compound=CC(=O)Nc1cc(-c2[nH]c3cc(F)cnc3c2-c2nc(C)cs2)ccn1 experimental_target="HIS-TGFβR1 T204D (Homo sapiens, UniProt P36897, T204D)" assigned_label="yes (1)"
compound=CC(=O)Nc1cc(-c2[nH]c3c(N4CCCC4)ccnc3c2-c2cccc(C(F)F)n2)ccn1 experimental_target="HIS-TGFβR1 T204D (Homo sapiens, UniProt P36897, T204D)" assigned_label="no (0)"
compound=COc1ccc(-c2c(-c3ccnc(NC(C)=O)c3)[nH]c3cc(C)cnc23)cn1 experimental_target="HIS-TGFβR1 T204D (Homo sapiens, UniProt P36897, T204D)" assigned_label="no (0)"
compound=CC(=O)Nc1cc(-c2[nH]c3c(C)ccnc3c2-c2nc(C(F)(F)F)cs2)ccn1 experimental_target="HIS-TGFβR1 T204D (Homo sapiens, UniProt P36897, T204D)" assigned_label="yes (1)"
compound=CC(=O)Nc1cc(-c2[nH]c3c(C#N)ccnc3c2-c2nc(C)cs2)ccn1 experimental_target="HIS-TGFβR1 T204D (Homo sapiens, UniProt P36897, T204D)" assigned_label="no (0)"
compound=COc1ccc(-c2c(-c3ccnc(NC(=O)CN4CCN(CCO)CC4)c3)[nH]c3cc(OC)cnc23)nc1 experimental_target="HIS-TGFβR1 T204D (Homo sapiens, UniProt P36897, T204D)" assigned_label="yes (1)"
compound=CC(=O)Nc1cc(-c2[nH]c3c(Cl)ccnc3c2-c2ccc(Cl)cn2)ccn1 experimental_target="HIS-TGFβR1 T204D (Homo sapiens, UniProt P36897, T204D)" assigned_label="no (0)"
compound=COc1cccc(-c2c(-c3ccnc(NC(C)=O)c3)[nH]c3cc(Cl)cnc23)n1 experimental_target="HIS-TGFβR1 T204D (Homo sapiens, UniProt P36897, T204D)" assigned_label="no (0)"
compound=COc1ccc(-c2c(-c3ccnc(NC(=O)CN4CC[C@H](O)C4)c3)[nH]c3cc(OC)cnc23)nc1 experimental_target="HIS-TGFβR1 T204D (Homo sapiens, UniProt P36897, T204D)" assigned_label="yes (1)"
compound=COc1cnc2c(-c3nc(C(F)(F)F)cs3)c(-c3ccnc(NC(C)=O)c3)[nH]c2c1 experimental_target="HIS-TGFβR1 T204D (Homo sapiens, UniProt P36897, T204D)" assigned_label="yes (1)"
compound="CC(=O)Nc1cc(-c2[nH]c3c(C(C)O)ccnc3c2-c2cccc(C(F)F)n2)ccn1 (centres unmarked)" experimental_target="HIS-TGFβR1 T204D (Homo sapiens, UniProt P36897, T204D)" assigned_label="yes (1)"
compound=CC(=O)Nc1cc(-c2[nH]c3c(CCO)ccnc3c2-c2cccc(C(F)F)n2)ccn1 experimental_target="HIS-TGFβR1 T204D (Homo sapiens, UniProt P36897, T204D)" assigned_label="yes (1)"
compound=CC(=O)Nc1cc(-c2[nH]c3c(-c4c(C)noc4C)ccnc3c2-c2cccc(C(F)F)n2)ccn1 experimental_target="HIS-TGFβR1 T204D (Homo sapiens, UniProt P36897, T204D)" assigned_label="no (0)"
compound=CC(=O)Nc1cc(-c2[nH]c3cc(Cl)cnc3c2-c2cccc(C(F)F)n2)ccn1 experimental_target="HIS-TGFβR1 T204D (Homo sapiens, UniProt P36897, T204D)" assigned_label="yes (1)"
compound=COc1ccc(-c2c(-c3ccnc(NC(C)=O)c3)[nH]c3cc(Cl)cnc23)nc1 experimental_target="HIS-TGFβR1 T204D (Homo sapiens, UniProt P36897, T204D)" assigned_label="no (0)"
compound="CC(=O)Nc1cc(-c2[nH]c3c(C4CCCCO4)ccnc3c2-c2cccc(C(F)F)n2)ccn1 (centres unmarked)" experimental_target="HIS-TGFβR1 T204D (Homo sapiens, UniProt P36897, T204D)" assigned_label="no (0)"
compound=C[C@H](O)C(=O)Nc1cc(-c2[nH]c3cc(Cl)cnc3c2-c2ccc(F)cn2)ccn1 experimental_target="HIS-TGFβR1 T204D (Homo sapiens, UniProt P36897, T204D)" assigned_label="no (0)"
compound="CC(=O)Nc1cc(-c2[nH]c3c(C(O)C(F)F)ccnc3c2-c2cccc(C(F)F)n2)ccn1 (centres unmarked)" experimental_target="HIS-TGFβR1 T204D (Homo sapiens, UniProt P36897, T204D)" assigned_label="yes (1)"

Where do these numbers come from? They come from patent US9708316B2.
